target: Matrix metalloproteinase-9 (Homo sapiens) (UniProt P14780); assay: Inhibition of MMP-9 (matrix metalloprotease) at 1 uM
Sequence (P14780 whole entry): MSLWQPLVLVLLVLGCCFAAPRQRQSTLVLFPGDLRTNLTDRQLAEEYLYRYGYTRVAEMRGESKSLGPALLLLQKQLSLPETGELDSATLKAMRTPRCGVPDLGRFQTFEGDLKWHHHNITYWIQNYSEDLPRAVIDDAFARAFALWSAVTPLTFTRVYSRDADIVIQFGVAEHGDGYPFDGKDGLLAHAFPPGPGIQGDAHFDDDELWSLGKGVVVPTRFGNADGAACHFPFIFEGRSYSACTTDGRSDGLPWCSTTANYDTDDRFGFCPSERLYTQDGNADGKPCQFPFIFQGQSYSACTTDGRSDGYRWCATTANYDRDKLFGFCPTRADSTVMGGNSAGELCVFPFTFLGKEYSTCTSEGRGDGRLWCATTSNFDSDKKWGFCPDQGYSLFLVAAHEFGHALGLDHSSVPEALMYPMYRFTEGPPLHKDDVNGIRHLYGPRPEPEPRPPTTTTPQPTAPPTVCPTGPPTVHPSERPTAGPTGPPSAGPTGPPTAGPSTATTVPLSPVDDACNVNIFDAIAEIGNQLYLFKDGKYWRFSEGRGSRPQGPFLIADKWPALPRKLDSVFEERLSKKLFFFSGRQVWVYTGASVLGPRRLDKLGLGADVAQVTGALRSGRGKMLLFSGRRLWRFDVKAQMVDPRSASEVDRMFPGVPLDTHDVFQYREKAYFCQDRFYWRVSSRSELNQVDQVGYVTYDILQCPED
Could you please report measured inhibition for the items listed next?
Numbers only, in %.

Guide cases for inhibition, answers given:
>  <Mol Smiles>
CC(=O)NCCCC[C@@H]1NC(=O)[C@@H](CN(O)C=O)CCCCCCCCCNC1=O

>  <Outcome Measure>
inhibition

>  <Reading>
8

$$$$
>  <Mol Smiles>
NCCCC[C@@H]1NC(=O)[C@@H](CN(O)C=O)CCCCCCCCCCCCCCNC1=O

>  <Outcome Measure>
inhibition

>  <Reading>
4

$$$$
>  <Mol Smiles>
CC(C)(C)[C@@H]1NC(=O)[C@@H](CN(O)C=O)CCCCCCCCCCCCCCNC1=O

>  <Outcome Measure>
inhibition

>  <Reading>
4

$$$$
>  <Mol Smiles>
CCCCCCNC(=O)[C@H](CCCCN)NC(=O)[C@H](CCCCC)CN(O)C=O

>  <Outcome Measure>
inhibition

>  <Reading>
61

$$$$
>  <Mol Smiles>
CC(C)(C)[C@@H]1NC(=O)[C@@H](CN(O)C=O)CCCCCCCCCNC1=O

>  <Outcome Measure>
inhibition

>  <Reading>
5

$$$$
>  <Mol Smiles>
CC(C)(C)[C@@H]1NC(=O)[C@@H](CN(O)C=O)CCCCCCCCNC1=O

>  <Outcome Measure>
inhibition

>  <Reading>
8

$$$$

API: the following record is the query input.
The recorded inhibition for CCCC[C@H](CN(O)C=O)C(=O)N[C@@H](CCCCN)C(=O)Nc1ccccc1 is 54

---

Assignment: determine reported K5 for the given compounds.
Target: Peptide deformylase (Escherichia coli)
Sequence (whole entry): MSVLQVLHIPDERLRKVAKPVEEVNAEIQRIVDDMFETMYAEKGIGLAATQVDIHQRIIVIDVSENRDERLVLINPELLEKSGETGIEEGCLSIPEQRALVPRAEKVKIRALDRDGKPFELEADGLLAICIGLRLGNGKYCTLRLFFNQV
Assay: Inhibition constant against Escherichia coli Peptide deformylase (PDF)

Some compounds with known K5 results, for comparison:
>  <Mol Smiles>
CC(C)(C)[C@@H]1NC(=O)[C@@H](CN(O)C=O)CCCCCCCCNC1=O

>  <K5>
0.02 min⁻¹

$$$$
>  <Mol Smiles>
CC(C)(C)[C@@H]1NC(=O)[C@@H](CN(O)C=O)CCCCCCCCCCCCCCNC1=O

>  <K5>
1 min⁻¹

$$$$
>  <Mol Smiles>
CC(C)(C)[C@@H]1NC(=O)[C@@H](CN(O)C=O)CCCCCCCCCCCNC1=O

>  <K5>
0.5 min⁻¹

$$$$

// K5 value for CC(C)(C)[C@@H]1NC(=O)[C@@H](CN(O)C=O)CCCCCCCCCNC1=O : 1.2 min⁻¹

---

target: Stromelysin-1 (Homo sapiens); experiment: Inhibition of MMP-3 (matrix metalloprotease) at 1 uM
Outcome Measure: inhibition (%)
Numbers only, in %.

// solved cases for inhibition follow
>  <Mol Smiles>
NCCCC[C@@H]1NC(=O)[C@@H](CN(O)C=O)CCCCCCCCCCCCCCNC1=O

>  <Reading>
0

$$$$
>  <Mol Smiles>
CCCCCCNC(=O)[C@H](CCCCN)NC(=O)[C@H](CCCCC)CN(O)C=O

>  <Reading>
81

$$$$
>  <Mol Smiles>
CC(C)(C)[C@@H]1NC(=O)[C@@H](CN(O)C=O)CCCCCCCCCCCCCCNC1=O

>  <Reading>
3

$$$$
>  <Mol Smiles>
CCCC[C@H](CN(O)C=O)C(=O)N[C@@H](CCCCN)C(=O)Nc1ccccc1

>  <Reading>
68

$$$$
>  <Mol Smiles>
CC(C)(C)[C@@H]1NC(=O)[C@@H](CN(O)C=O)CCCCCCCCNC1=O

>  <Reading>
3

$$$$
>  <Mol Smiles>
CC(=O)NCCCC[C@@H]1NC(=O)[C@@H](CN(O)C=O)CCCCCCCCCNC1=O

>  <Reading>
0

$$$$

Now, please, on to the next compound.
So for CC(C)(C)[C@@H]1NC(=O)[C@@H](CN(O)C=O)CCCCCCCCCNC1=O , the logged inhibition turned out to be 3

---

Molecular target: Peptide deformylase (Escherichia coli)
Sequence (Q9JN24 whole entry): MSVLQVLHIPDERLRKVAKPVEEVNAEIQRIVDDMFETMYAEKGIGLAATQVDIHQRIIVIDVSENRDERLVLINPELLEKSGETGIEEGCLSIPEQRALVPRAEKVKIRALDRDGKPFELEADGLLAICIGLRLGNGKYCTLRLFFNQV
Assay: Inhibitory effect against Escherichia coli peptide deformylase (PDF) by DPPI assay
Outcome Measure: pKi
One number for each entry, as −log10 of the molar value.

Completed entries (count: 2):
>  <Mol Smiles>
NCCCC[C@@H]1NC(=O)[C@@H](CN(O)C=O)CCCCCCCCCNC1=O

>  <Experimental System>
Peptide deformylase (Escherichia coli)

>  <Reading>
7.04

$$$$
>  <Mol Smiles>
CCCC[C@H](CN(O)C=O)C(=O)N[C@H](C(=O)N(C)C)C(C)(C)C

>  <Experimental System>
Peptide deformylase (Escherichia coli)

>  <Reading>
7.96

$$$$

# compound CC(C)(C)[C@@H]1NC(=O)[C@@H](CN(O)C=O)CCCCCCCCNC1=O ; its pKi = 7.20
